system: KRAS^G12D mutant tumor cell line AsPC-1; experiment: Antiproliferative effects of compounds in tumor cell line AsPC-1 (CellTiter-Glo 3D); type: cell-based; details: Homo sapiens, ASPC1, Experimental Example 1, 7,000 cells per well, ULA plate, 120 h incubation
reportedProperty: pIC50
Give bare numbers, as −log10 of the molar value.

Find the recorded pIC50 belonging to C=C1CN2CCC[C@]2(COc2nc3c(c(N4CCCn5nc(C(=O)N(C)C)cc5C4)n2)CO[C@@H](c2c(F)c(N)cc(C#CC)c2C(F)(F)F)C3)C1 (single isomer, unassigned) and report it.
8.21
